Molecular target: Factor X (FX), P00742
Sequence (P00742 whole entry, looked up): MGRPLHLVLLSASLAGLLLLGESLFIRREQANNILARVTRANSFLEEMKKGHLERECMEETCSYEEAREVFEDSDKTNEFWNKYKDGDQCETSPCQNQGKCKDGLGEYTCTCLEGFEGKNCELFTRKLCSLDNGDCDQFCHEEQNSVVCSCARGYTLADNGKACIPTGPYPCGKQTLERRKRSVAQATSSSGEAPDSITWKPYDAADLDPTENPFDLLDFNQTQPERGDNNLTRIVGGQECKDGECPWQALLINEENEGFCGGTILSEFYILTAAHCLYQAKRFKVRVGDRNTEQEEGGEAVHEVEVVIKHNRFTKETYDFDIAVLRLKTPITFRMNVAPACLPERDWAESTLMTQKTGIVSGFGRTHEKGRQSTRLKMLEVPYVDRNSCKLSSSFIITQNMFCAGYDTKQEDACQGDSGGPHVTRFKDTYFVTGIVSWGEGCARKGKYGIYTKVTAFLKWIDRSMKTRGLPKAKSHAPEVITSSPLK
Property: KM of FX activation by FIXa in the Xase complex (FVIIIa, PC/PS vesicles, Ca2+); scope: individual proteins
I only need the number, in µM, no unit after it.

>  <Protein>
FIXa variant Y155F/R338E/R403E/E410N (mature FIX numbering) (protein) chain 1: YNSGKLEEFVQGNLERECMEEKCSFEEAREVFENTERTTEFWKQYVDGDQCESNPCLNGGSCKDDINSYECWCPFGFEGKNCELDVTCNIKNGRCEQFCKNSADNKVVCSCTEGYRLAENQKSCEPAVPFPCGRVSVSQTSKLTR chain 2: VVGGEDAKPGQFPWQVVLNGKVDAFCGGSIVNEKWIVTAAHCVETGVKITVVAGEHNIEETEHTEQKRNVIRIIPHHNYNAAINKYNHDIALLELDEPLVLNSYVTPICIADKEYTNIFLKFGSGYVSGWGRVFHKGRSALVLQYLRVPLVDRATCLESTKFTIYNNMFCAGFHEGGRDSCQGDSGGPHVTEVEGTSFLTGIISWGEECAMKGKYGIYTKVSEYVNWIKNKTKLT

>  <Reported Result>
0.0336

$$$$
>  <Protein>
FIXa variant Y155F/R318Y/R403E/E410N (mature FIX numbering) (protein) chain 1: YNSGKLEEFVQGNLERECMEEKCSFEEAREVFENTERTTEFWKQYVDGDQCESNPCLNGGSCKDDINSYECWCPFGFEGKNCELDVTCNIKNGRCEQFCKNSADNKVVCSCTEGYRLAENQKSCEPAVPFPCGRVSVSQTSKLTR chain 2: VVGGEDAKPGQFPWQVVLNGKVDAFCGGSIVNEKWIVTAAHCVETGVKITVVAGEHNIEETEHTEQKRNVIRIIPHHNYNAAINKYNHDIALLELDEPLVLNSYVTPICIADKEYTNIFLKFGSGYVSGWGRVFHKGYSALVLQYLRVPLVDRATCLRSTKFTIYNNMFCAGFHEGGRDSCQGDSGGPHVTEVEGTSFLTGIISWGEECAMKGKYGIYTKVSEYVNWIKNKTKLT

>  <Reported Result>
0.111

$$$$

**Query** Can you share its KM of FX activation by FIXa in the Xase complex (FVIIIa, PC/PS vesicles, Ca2+)? I mean this protein: FIXa variant R318Y/R338E/E410N (mature FIX numbering) (protein) chain 1: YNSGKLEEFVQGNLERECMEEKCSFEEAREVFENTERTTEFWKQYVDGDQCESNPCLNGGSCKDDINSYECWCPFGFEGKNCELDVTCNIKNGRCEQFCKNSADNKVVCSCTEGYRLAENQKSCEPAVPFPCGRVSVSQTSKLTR chain 2: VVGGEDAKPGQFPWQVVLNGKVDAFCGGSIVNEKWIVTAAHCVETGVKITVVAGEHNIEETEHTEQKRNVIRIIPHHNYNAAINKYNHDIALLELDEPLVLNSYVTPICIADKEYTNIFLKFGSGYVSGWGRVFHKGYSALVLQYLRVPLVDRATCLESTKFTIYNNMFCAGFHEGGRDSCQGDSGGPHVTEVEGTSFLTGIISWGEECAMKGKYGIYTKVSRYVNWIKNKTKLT
**Result** 0.0139

**Query** Lookup FIXa variant A103N/N105S/R318Y/R338E/R403E/E410N (mature FIX numbering) (protein) chain 1: YNSGKLEEFVQGNLERECMEEKCSFEEAREVFENTERTTEFWKQYVDGDQCESNPCLNGGSCKDDINSYECWCPFGFEGKNCELDVTCNIKNGRCEQFCKNSNDSKVVCSCTEGYRLAENQKSCEPAVPFPCGRVSVSQTSKLTR chain 2: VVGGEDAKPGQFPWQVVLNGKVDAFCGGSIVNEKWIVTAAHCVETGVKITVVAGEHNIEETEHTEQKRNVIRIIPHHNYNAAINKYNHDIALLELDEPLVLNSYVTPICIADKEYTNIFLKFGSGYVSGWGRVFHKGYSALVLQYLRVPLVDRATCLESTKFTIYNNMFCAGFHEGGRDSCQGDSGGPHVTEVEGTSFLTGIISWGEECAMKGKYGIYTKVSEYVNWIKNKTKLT
**Result** 0.0447

The measurements presented in this section are drawn from patent US20210230570.
